These measurements were taken from PubChem BioAssay (NCI).

- System: RPMI-8226 leukemia
- experiment notes: NCI tumour cell line growth inhibition, 48 h
Record form. Attribute: TGI. Fill in for each entry.

[
  {
    "compound": "Cn1c(-c2cccs2)cc(-c2cccs2)c1-c1cccs1",
    "TGI": "> 100 µM"
  },
  {
    "compound": "O=c1[nH]c(=O)n(C/C=C/CO)nc1Br",
    "TGI": "> 100 µM"
  },
  {
    "compound": "Cc1cn2c(/C=C3/C(=O)N(C)c4ccccc43)c(C)nc2s1",
    "TGI": "> 100 µM"
  },
  {
    "compound": "O=C(CP(=O)(c1ccccc1)c1ccccc1)c1cccc(C(=O)CP(=O)(c2ccccc2)c2ccccc2)c1",
    "TGI": "> 100 µM"
  },
  {
    "compound": "CC1=C(C)CC2(CCCCC2=O)S(=O)C1 (configuration not stated)",
    "TGI": "> 100 µM"
  },
  {
    "compound": "OCC1OC(NC(=S)NCCC(F)(F)C(F)(F)C(F)(F)C(F)(F)C(F)(F)C(F)(F)F)C(O)C(O)C1O (configuration not stated)",
    "TGI": "> 100 µM"
  }
]

For each entry beneath this line, provide reported TGI.
1. CC1(n2nc(-c3ccccc3)n(-c3ccccc3)c2=O)CSC1
2. Cc1nc2ccccc2c(=O)n1NC(=O)c1ccccn1
3. CCOC(=O)/C=C/CC(C)(C)COC(C)=O
4. Cn1cc(C(=O)c2ccccc2)ccc1=O

[out]
1: > 100 µM; 2: > 100 µM; 3: > 10 µM; 4: > 100 µM

Each compound below has a recorded value; state its TGI.
1. O=C(Nc1ccc(Cl)cc1)c1cc(S(=O)(=O)Nc2n[nH]c(Nc3ccc4ccccc4c3)n2)c(SSc2cc(Cl)c(C(=O)Nc3ccc(Cl)cc3)cc2S(=O)(=O)Nc2n[nH]c(Nc3ccc4ccccc4c3)n2)cc1Cl
2. O=C1c2ccccc2-c2c1c1ccccc1c(=O)n2Cc1ccccc1

[out]
> 74.7 µM
> 100 µM

Dear colleague, could you send me TGI for each of the items below? Thanks.
1. Cc1[nH]c(=O)[nH]c(=O)c1/C=C/C(=O)NC(CO)CC(C)C (configuration not stated)
2. CC12CCCC(C(=O)O)(C1)[C@H](C(C)(C)C(=O)O)CC2 (some centres not stated)

[out]
1: > 375 µM; 2: > 100 µM

// for each compound in input: emit TGI
1. CC(C)C[C@H]1[C@@H](OCc2ccccc2)COS(=O)(=O)N1[C@H](C)c1ccccc1
2. CC1(C)C2CC(O)C1(C)CC2=O (configuration not stated)
3. CCOC(=O)NC(=O)c1cn(CCOCCOC(=O)NCCCCCCNC(=O)OCCOCCn2cc(C(=O)NC(=O)OCC)c(=O)[nH]c2=O)c(=O)[nH]c1=O
4. COc1cc(OC(=O)c2c(O)cc(O)c(O)c2C)cc(C)c1C(=O)Oc1cc(C)c(C(=O)O)c(O)c1
5. C[N+]12CCCCC1C(COc1cccc3cccnc13)CCC2 (configuration not stated)
6. CC12CCCC(O)C1CCC1=CC3(CCC12)SCCS3 (configuration not stated)
7. NC(=O)NC1NC(=O)NC1=O (configuration not stated)
8. O=[N+]([O-])/C(C(Cl)=C(Cl)Cl)=C1\Nc2ccc([N+](=O)[O-])cc2N1

[out]
> 74.7 µM
> 100 µM
> 100 µM
> 100 µM
> 100 µM
> 10 µM
> 100 µM
> 100 µM
